# MEASUREMENT_PROTOCOL: Solubility in commonly used solvents and PBS
# Assay type: physicochemical
# CONDITIONS_USED: water; read-out: Solubility
# Description: We established that the solubility of Compound 1a in most commonly used solvents is very low (Table 2) which represents an issue for biological evaluation. Therefore a hydrochloric salt of Compound 1a was synthesised and the solubility was analyzed. The obtained salt had improved solubility in water and methanol (Table 2), however it was not soluble (<0.1 g/100 ml) in Phosphate Buffered Saline (PBS). […]
READOUT_NAME: Solubility

stdin: Please look up its Solubility: O=C(Nc1ccccc1C(=O)NCCN1CCOCC1)c1ccccc1F [Compound 1a]
stdout: < 100 µg/mL
